# assay.procedure: Cytotoxicity against human SKBR3 cells after 5 days by SRB assay
# Type: functional
# assay.conditions: SK-BR-3, 120 h
Each entry falls in a class defined on GI50; the bands are class 1: < 4 µM; class 2: ≥ 4 µM and < 10 µM; class 3: ≥ 10 µM

Input line: Classify this compound: CN(C)Cc1ccc(/C=C/c2n[nH]c3cc([C@@H]4C[C@@]45C(=O)Nc4ccccc45)ccc23)cc1 (relative stereo)
Output line: class 3

Input line: Class label required: COc1ccc2c(c1)[C@]1(C[C@H]1c1ccc3c(/C=C/c4ccc(CN(C)C)cc4)n[nH]c3c1)C(=O)N2 (relative stereo)
Output line: class 2

Input line: Using the reported GI50, which band applies to CN1CCN(Cc2ccc(/C=C/c3n[nH]c4cc([C@@H]5C[C@@]56C(=O)Nc5ccccc56)ccc34)cc2)CC1 (relative stereo) ?
Output line: class 2

Input line: Class? Entry: CN(C)Cc1ccc(/C=C/c2n[nH]c3cc([C@@H]4C[C@@]45C(=O)Nc4ccc(OC(F)F)cc45)ccc23)cc1 (relative stereo)
Output line: class 1

Input line: Consider O=C1Nc2ccccc2[C@]12C[C@H]2c1ccc2c(/C=C/c3ccc(CN4CCCCC4)cc3)n[nH]c2c1 (relative stereo) . To which GI50 class does it belong?
Output line: class 1

Input line: Band for the recorded GI50 of CCc1ccc2c(c1)[C@]1(C[C@H]1c1ccc3c(/C=C/c4ccc(CN(C)C)cc4)n[nH]c3c1)C(=O)N2 (relative stereo) ?
Output line: class 1

Input line: Where would COc1ccc2c(c1)[C@]1(C[C@H]1c1ccc3c(/C=C/c4ccc(CN5CCCCC5)nc4)n[nH]c3c1)C(=O)N2 (relative stereo) land among the classes by reported GI50?
Output line: class 2

Input line: Lab log: CNC(=O)c1ccccc1Sc1ccc2c(/C=C/c3ccccn3)n[nH]c2c1 — assign GI50 category
Output line: class 2

Input line: Which band does Cc1ccc(/C=C/c2n[nH]c3cc([C@@H]4C[C@@]45C(=O)Nc4ccccc45)ccc23)cn1 fall in?
Output line: class 2

Input line: Which category fits this record: Cc1ccc(/C=C/c2n[nH]c3cc([C@@H]4C[C@@]45C(=O)Nc4ccccc45)ccc23)c(C)n1 (relative stereo)
Output line: class 3

Input line: Band assignment needed for CN(C)Cc1ccc(/C=C/c2n[nH]c3cc([C@@H]4C[C@@]45C(=O)Nc4ccc(F)cc45)ccc23)cc1 (relative stereo) please.
Output line: class 1

Input line: Category of COc1ccc2c(c1)[C@]1(C[C@H]1c1ccc3c(/C=C/c4cc(F)c(CN5CCOCC5)c(F)c4)n[nH]c3c1)C(=O)N2 (relative stereo) :
Output line: class 1

Input line: Each compound maps to one class by GI50. Which class for Cc1ccc2c(c1)[C@]1(C[C@H]1c1ccc3c(/C=C/c4ccc(CN(C)C)cc4)n[nH]c3c1)C(=O)N2 (relative stereo) ?
Output line: class 1

Input line: Textbook exercise: identify the category of the compound given here, O=C1Nc2ccccc2[C@]12C[C@H]2c1ccc2c(/C=C/c3ccc(CN4CCOCC4)cc3)n[nH]c2c1 (relative stereo) , according to its measured value.
Output line: class 3

Input line: Bin? CN(C)Cc1ccc(/C=C/c2n[nH]c3cc([C@@H]4C[C@@]45C(=O)Nc4ccc(Cl)cc45)ccc23)cc1 (relative stereo)
Output line: class 1

Input line: Returns: class label. Input: Cc1ccc2c(c1)[C@]1(C[C@H]1c1ccc3c(/C=C/c4ccc(CN5CCOCC5)cc4)n[nH]c3c1)C(=O)N2 (relative stereo)
Output line: class 2

Input line: Hi there! Could you help me figure out the category for COc1ccc2c(c1)[C@]1(C[C@H]1c1ccc3c(/C=C/c4ccc(CN5CCOCC5)cc4)n[nH]c3c1)C(=O)N2 (relative stereo) please?
Output line: class 3

Input line: Band assignment needed for O=C1Nc2ccccc2[C@]12C[C@H]2c1ccc2c(/C=C/c3cccnc3)n[nH]c2c1 (relative stereo) please.
Output line: class 3

Input line: Class? Entry: O=C1Nc2ccccc2[C@]12C[C@H]2c1ccc2c(/C=C/c3ccncc3)n[nH]c2c1 (relative stereo)
Output line: class 3

Input line: Hello team, could you let me know which band the following compound falls into: COc1ccc2c(c1)[C@]1(C[C@H]1c1ccc3c(/C=C/c4ccc(N5CCN(C)CC5)nc4)n[nH]c3c1)C(=O)N2 (relative stereo)
Output line: class 3

Input line: Sort into band: O=C1Nc2ccccc2[C@]12C[C@H]2c1ccc2c(/C=C/c3ccc(CN4CCCCC4)nc3)n[nH]c2c1 (relative stereo)
Output line: class 1

This collection of values is drawn from ChEMBL document CHEMBL3351767.
